# subject of test: D(4) dopamine receptor (Homo sapiens)
# Sequence (P21917 whole entry): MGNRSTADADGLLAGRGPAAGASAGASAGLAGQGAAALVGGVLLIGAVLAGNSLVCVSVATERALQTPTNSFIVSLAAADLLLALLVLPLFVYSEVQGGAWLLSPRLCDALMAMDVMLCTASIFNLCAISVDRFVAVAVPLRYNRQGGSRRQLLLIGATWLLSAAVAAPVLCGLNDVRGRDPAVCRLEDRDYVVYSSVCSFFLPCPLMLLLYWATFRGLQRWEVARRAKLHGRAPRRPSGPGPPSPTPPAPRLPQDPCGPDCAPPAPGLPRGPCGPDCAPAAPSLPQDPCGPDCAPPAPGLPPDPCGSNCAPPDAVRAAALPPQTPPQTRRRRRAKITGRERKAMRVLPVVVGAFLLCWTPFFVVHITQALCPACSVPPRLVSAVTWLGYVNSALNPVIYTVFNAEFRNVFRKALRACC
# test description: Ability to displace [3H]spiperone from human Dopamine receptor D4.2 stably transfected in human embryonic kidney […] cells
pKi: −log10 of the molar value.
measured metric: pKi

Solved entries:
>>> print(df.to_string())
                                   molecule  measurement
0  O=C(N[C@@H]1CCN(Cc2ccccc2)C1)c1ccc(-c2ccsc2)cc1         7.74
1  O=C(NC1CCN(Cc2ccccc2)C1)c1ccc(-c2ccc(C(F)(F)F)cc2)cc1 (centres undefined)         7.77
2  O=C(N[C@@H]1CCN(Cc2ccccc2)C1)c1cccc(-c2ccsc2)c1         8.47
3  O=C(NC1CCN(Cc2ccccc2)C1)c1ccc(-c2ccccc2)cc1 (centres undefined)         8.52
4  O=C(N[C@H]1CCN(Cc2ccccc2)C1)c1cccc(-c2ccsc2)c1         8.70

(A) O=C(NC1CCN(Cc2ccccc2)C1)c1ccc(-c2ccsc2)cc1 (centres undefined)
(B) O=C(NC1CCN(Cc2ccccc2)C1)c1ccc(-c2ccc(F)cc2)cc1 (centres undefined)
(C) O=C(NC1CCN(Cc2ccccc2)C1)c1ccc(-c2cccc(F)c2)cc1 (centres undefined)
Q: Sort the 3 molecules by pKi; largest first, smallest last. Sort and list the labels as requested.
Ans: A, B, C

(1) O=C(N[C@H]1CCN(Cc2ccccc2)C1)c1ccc(-c2cccs2)cc1
(2) O=Cc1ccccc1-c1ccc(C(=O)NC2CCN(Cc3ccccc3)C2)cc1 (centres undefined)
Q: Determine, for 1 and 2 , which has the greater value of pKi. Bench note: the answer is the label of the chosen record.
Ans: 1
(1: 8.52, 2: 7.44)

(1) O=C(NC1CCN(Cc2ccccc2)C1)c1ccc(-c2cccs2)cc1 (centres undefined)
(2) O=C(NC1CCN(Cc2ccccc2)C1)c1ccc(-c2ccc(Cl)cc2)cc1 (centres undefined)
Q: Determine, for 1 and 2 , which has the greater value of pKi. Bench note: the answer is the label of the chosen record.
Ans: 1

(I) O=C(NC1CCN(Cc2ccccc2)C1)c1cccc(-c2ccccc2)c1 (centres undefined)
(II) O=C(N[C@H]1CCN(Cc2ccccc2)C1)c1cccc(-c2cccs2)c1
Q: Determine, for I and II , which has the greater value of pKi. Bench note: the answer is the label of the chosen record.
Ans: II

(A) Nc1cccc(-c2ccc(C(=O)NC3CCN(Cc4ccccc4)C3)cc2)c1 (centres undefined)
(B) O=Cc1ccc(-c2ccc(C(=O)NC3CCN(Cc4ccccc4)C3)cc2)cc1 (centres undefined)
Q: Please indicate which has the smaller reported pKi: A , or B . Bench note: the answer is the label of the chosen record.
Ans: B
(B: 7.15, A: 7.62)

(I) O=C(N[C@@H]1CCN(Cc2ccccc2)C1)c1ccc(-c2cccs2)cc1
(II) O=C(N[C@H]1CCN(Cc2ccccc2)C1)c1ccc(-c2ccsc2)cc1
Q: Determine, for I and II , which has the greater value of pKi. Bench note: the answer is the label of the chosen record.
Ans: II
(II: 8.70, I: 7.62)
